Reference source for all entries: PubChem BioAssay (NCI)

# Tested on: SF-295 CNS
# test_method_notes: NCI tumour cell line growth inhibition, 48 h
Label true when TGI is at or above 30 µM; anything below gets false.

Worked cases, answers included:
{"compound": "CN(C)C(c1ccccc1)C(O)c1ccccc1 (stereo unspecified)", "group": "true"}
{"compound": "CCOC(=O)C1(C(=O)OCC)C[C@H](C)[C@](C)(O)C1", "group": "true"}
{"compound": "C/C=C(/C)C(=O)O[C@H]1C[C@@H]2[C@@H](O)c3occ(C)c3C[C@]2(C)[C@@H](C)C1", "group": "false"}
{"compound": "COc1cc2c(cc1OC)CCc1cc(OC)c(OC)cc1CC2", "group": "true"}
{"compound": "Cc1ccc(/C=C2\\CCC/C(=C\\c3ccc(O)c(CN4CCCCC4)c3)C2=O)cc1", "group": "false"}
{"compound": "COc1ccc(C2SCC(=O)N2NC(=O)Nc2c(C)nc3ccccn23)cc1 (stereo unspecified)", "group": "true"}
{"compound": "c1cc2c(ncc3cscc32)s1", "group": "true"}
{"compound": "C=CC1(C)CCC2=C(CCC3C(C)(C(=O)OC)CCCC23C)C1=O (stereo unspecified)", "group": "true"}

Input line: Is reported TGI greater than or equal to 30 µM here: N#CCC(=O)NC1C2CC3CC(C2)CC1C3 (stereo unspecified)
Output line: true

Input line: Query Cc1cc(C)n(C2OC(CO)C(O)C(O)C2O)c(=S)c1C#N (stereo unspecified) next
Output line: true

Input line: Query COc1cc2c3c(n(C)c(=O)c2cc1OC)-c1cc2c(cc1/C3=C\CNCCCN)OCO2 next
Output line: false

---

# Tested on: K-562 leukemia
# test_method_notes: NCI tumour cell line growth inhibition, 48 h
Please provide measured TGI for the entries that follow.

{"compound": "COC(=O)C1=C(C(=O)OC)c2cc(OC)ccc2C(C(=S)N(C)C)S1 (stereo unspecified)", "subject_of_test": "K-562 leukemia", "TGI": "> 100 µM"}
{"compound": "CC1=CC(=O)N(n2c(Cc3ccccc3)n[nH]c2=O)C1=O", "subject_of_test": "K-562 leukemia", "TGI": "> 100 µM"}
{"compound": "N#CCC(=O)NC1C2CC3CC(C2)CC1C3 (stereo unspecified)", "subject_of_test": "K-562 leukemia", "TGI": "> 100 µM"}

Batch of 3 compounds: report TGI for each.
1. COc1ccc(N2C(=O)c3cc(C)cnc3S2(=O)=O)cc1
2. O=c1[nH]nc(Cc2ccccc2)[nH]1
3. CNc1nc2n(CCO)c(-c3ccccc3)c(-c3ccccc3)nc-2c(=O)n1

Output line:
1. > 100 µM
2. > 100 µM
3. > 50 µM

---

# Tested on: DU-145 prostate
# test_method_notes: NCI tumour cell line growth inhibition, 48 h
Please provide measured TGI for the entries that follow.
Numbers only, in µM.

Solved entries (count: 4):
{"compound": "COc1ccc(OC)c(C(=O)c2oc3ccc(Br)cc3c2N)c1", "TGI / µM": 17.3}
{"compound": "CC(C)=CC(=O)C[C@H]1C(=O)O[C@@H]2C[C@H]3C(C)=CC(=O)[C@@H](O)[C@]3(C)[C@H]3[C@@]4(O)OC[C@]32[C@@H]1[C@@H](C)[C@H]4O", "TGI / µM": 0.12}
{"compound": "COc1cc2c(c(OC)c1OC)C(=O)[C@@H]1c3ccc([N+](=O)[O-])cc3C(=O)N(CCCBr)[C@H]21", "TGI / µM": 53.2}
{"compound": "CC(C)CCCC(=O)CCCCCCC(=O)CCN(O)C(=O)C(N)CO (centres undefined)", "TGI / µM": 37.4}

Batch of 2 compounds: report TGI for each.
1. CC(C)(C)[Si](C)(C)OCC1OC(n2cc(I)c(N)nc2=O)C(O[Si](C)(C)C(C)(C)C)C1O[Si](C)(C)C(C)(C)C (centres undefined)
2. CC(C)(C)c1ccc(O)c(CN(Cc2cc(C(C)(C)C)ccc2O)c2ccccc2)c1

Output line:
1. 28.6
2. 38.3

---

# Test system: M14 melanoma
# test_method_notes: NCI tumour cell line growth inhibition, 48 h
Please provide measured TGI for the entries that follow.

Solved entries (count: 4):
{"molecule_smiles": "CC(C)(C)c1ccc(-c2nc3ccc(Cl)cc3c(=O)o2)cc1", "TGI": "49.2 µM"}
{"molecule_smiles": "Cn1c2ccccc2c2c3[nH]c(=O)[nH]c(=O)c3c3c4ccccc4n(C)c3c21", "TGI": "> 100 µM"}
{"molecule_smiles": "CCOC(=O)CCn1[nH]c(=O)c(Cl)c(Cl)c1=O", "TGI": "> 100 µM"}
{"molecule_smiles": "O=c1[nH]c(Nc2nc3ccccc3[nH]2)nc2c1CCC2", "TGI": "> 100 µM"}

Batch of 2 compounds: report TGI for each.
1. Cc1ccccc1N=Nc1ccc(N/N=C2/CCCNC2=O)c(C)c1
2. O=C1O/C(=C(/Cl)c2cccc3ccccc23)c2ccccc21

Output line:
["> 100 µM", "> 100 µM"]

---

Please provide measured TGI for the entries that follow.
# System: M14 melanoma
# test_method_notes: NCI tumour cell line growth inhibition, 48 h

Solved entries (count: 5):
{"molecule": "CC12CCC([C@H](C(O)C3CCCCC3)C1=O)C2(C)C (stereo not given in full)", "result": "> 100 µM"}
{"molecule": "CCc1ccc(Nc2ccc([N+](=O)[O-])cc2[N+](=O)[O-])cc1", "result": "> 100 µM"}
{"molecule": "CN1C2CCC1CC(CCNC(c1ccccc1)c1ccccc1)C2 (stereo not given)", "result": "24.9 µM"}
{"molecule": "COc1cc(/C=C2\\N=C(c3ccccc3)N(c3nc4c(OC)ccc(OC)c4s3)C2=O)ccc1O", "result": "> 100 µM"}
{"molecule": "CCCCCN(CCCCC)CC(O)c1ccc(Cl)c2ccccc12 (stereo not given)", "result": "18.7 µM"}

Batch of 5 molecules: report TGI for each.
1. O=C(Cc1ccccc1)N/N=C/c1ccccc1O
2. COc1cc(OC)c2c(=O)c(OC)c(-c3ccc4c(c3)OCO4)oc2c1
3. CC1(C)CC(=O)C(/C=N/c2nc(-c3ccccc3)cs2)=C(O)C1
4. O=C1CCCCC2N(C(c3ccccc3)c3ccccc3)CC[C@@]12c1ccccc1 (mixture of isomers)
5. CCCCOC(=O)NC(=O)c1cn(C2CCCCC2)c(=O)[nH]c1=O

Output line:
1. 22.8 µM
2. > 100 µM
3. > 100 µM
4. > 10 µM
5. > 100 µM

---

# System: 786-0 renal
# test_method_notes: NCI tumour cell line growth inhibition, 48 h; in the data active = GI50 below about 0.43 µM; inactive = the rest
Lab note: assign the record to one of active, inactive

Worked cases, answers included:
{"molecule": "CCc1oc2ccccc2c1C(=O)c1cc(I)c(O)c(I)c1", "group": "inactive"}
{"molecule": "CC1(C)N=C(N)N=C(N)N1c1ccc(OCc2ccc(S(=O)(=O)F)c(Cl)c2)c(Cl)c1", "group": "inactive"}

Input line: Kindly provide the recorded test outcome for the following molecule: COc1ccc(C2SCC(=O)N2NC(=O)Nc2c(C)nc3ccccn23)cc1 (centres undefined)
Output line: inactive

Input line: Query COc1ccccc1Cn1cc2c(c1-c1ccccc1)CCc1cnoc1-2 next
Output line: inactive

Input line: Query C/C(=N\Nc1ccc(Cl)cn1)c1ccccn1 next
Output line: active

Input line: Query COc1cc2c3c(n(CCNCCCNCCn4c5c(c6cc(OC)c(OC)cc6c4=O)C(=O)c4ccccc4-5)c(=O)c2cc1OC)-c1ccccc1C3=O next
Output line: active

Input line: Query c1cc[c]([Pb]([c]2ccccc2)[c]2ccccc2)cc1 next
Output line: inactive

---

# System: IGROV1 ovarian
# test_method_notes: NCI tumour cell line growth inhibition, 48 h; in the data active means GI50 below about 0.43 µM; inactive means the rest
Lab note: assign the record to one of active, inactive

{"molecule_smiles": "O=C1/C(=C/c2ccc(O)cc2)CSc2ccc(Cl)cc21", "subject_of_test": "IGROV1 ovarian", "group": "inactive"}
{"molecule_smiles": "Nc1nc(-c2cccc(Cl)c2)c(-c2ccc3ncccc3n2)s1", "subject_of_test": "IGROV1 ovarian", "group": "inactive"}
{"molecule_smiles": "COc1cc2c3c(n(CCNCCCNCCn4c5c(c6cc(OC)c(OC)cc6c4=O)C(=O)c4ccccc4-5)c(=O)c2cc1OC)-c1ccccc1C3=O", "subject_of_test": "IGROV1 ovarian", "group": "active"}
{"molecule_smiles": "COc1cc(NS(=O)(=O)c2ccc(-c3cnc(C4CC4)o3)cc2)ccc1F", "subject_of_test": "IGROV1 ovarian", "group": "inactive"}

Could you now look at the following compound, please?
Input line: Kindly provide the recorded test outcome for the following compound: CCOC(=O)c1c(C)nc2c(c1N)/C(=C/c1ccc(OC)cc1)C(=O)N2Cc1ccc(F)cc1
Output line: active
